// provenance: PubChem BioAssay (NCI)

# Tested on: MALME-3M melanoma
# protocolNotes: NCI-60 one-dose screen, 48 h
# testConditions: 10 µM unless noted
Compounds without any hit were thinned out: in the full panel of roughly 83,000, 20% have a hit. Activity calls are given as the source filed them. The calls were made as follows: active = growth percent below 10; inactive = the rest.
Choose one outcome from this list and give only that: 1 for active, -1 for inactive

compound	labelValue
CN1C(=O)C2(SCC(C(=O)NCC(=O)OC(C)(C)C)N2C(=O)C2CCCCC2)c2ccccc21 (stereo not given)	-1
CCCCn1c(-c2cccc(OC)c2)nc2cc(OC)c(OC)cc2c1=O	-1
COc1cc(Br)c(-c2nc(-c3ccccc3)c(-c3ccccc3)n2Cc2ccccc2)cc1OC	-1
CC(C(C(=O)N1CCCCC1)N1CCCCC1)N1CCCCC1 (stereo not given)	-1
COc1ccc(C(=O)Cn2cnc3c(Nc4cc(C(=O)Nc5ccc(N6CCN(CCO)CC6)cc5)ccc4C)ncnc32)cc1	-1
Nc1nccc2c1ccn2-c1ccc(NC(=O)c2ccc(N3CCOCC3)c(C(F)(F)F)c2)cc1	1

Look up the recorded call for `CCc1c(C)c2cc3nc(NCc4ccccc4)oc3c(C)c2oc1=O` in this test.
-1

So what was the verdict on CCC1(C(N)=O)CC2C=CC1CC2 (stereo not given) in this test?
-1

Record lookup: outcome of this test for `COC(=O)CCCNS(=O)(=O)c1cc(C(=O)Nc2ccc(NC(=O)c3cc(S(=O)(=O)NCCCC(=O)OC)c(O)c(O)c3O)cc2)c(O)c(O)c1O` ?
-1

Write down the call the test reported for this compound. Item: `O=C(Nc1ccc(-n2ccc3c(NC(=O)c4ccccc4)ncnc32)cc1)Nc1ccc(Cl)c(C(F)(F)F)c1`
-1

What call does the record list for `COc1ccc(-c2nnc(NC(=O)CN3CCN(c4cc5c(cc4F)c(=O)c(C(=O)O)cn5C4CC4)CC3)s2)cc1OC` ?
-1
